Please provide measured growth for the entries that follow.
# Tested on: HCT-116 colon
# MEASUREMENT NOTES: NCI-60 one-dose screen, 48 h (100 = growth as untreated, 0 = no growth, -100 = all killed)
# STUDY CONDITIONS: 10 µM unless noted
The panel holds about 83,000 compounds, 20% with a hit somewhere; the sample as a whole holds those more often.
Numbers only, in %.

COc1cc(OC)c(C2C(Cl)C(=O)N2Nc2ncnc3ccccc23)cc1OC (stereo not given) : 96.5
O=C(CCN1C(=O)/C(=C/c2ccccc2)SC1=S)N1CCOCC1 : 89.6
CCCC(=O)NC(c1cccc(N(C)C)c1)c1cc(C)c2cccnc2c1O (stereo not given) : 22.7

// batch mode: one growth value per listed entry
1. Cn1ccnc1C(=O)/C=C/c1ccc(NC(=O)Nc2ccccc2)cc1
2. Cc1[nH]nc2ncc(C#Cc3cncc(C(=O)Nc4ccc(CN5CCN(C)CC5)c(C(F)(F)F)c4)c3)cc12
3. O=C(N/N=C/c1cccs1)c1[nH]c2ccc(Br)cc2c1-c1ccccc1

Resp:
1. 3.54
2. 8.54
3. -33.7

Batch request: growth for each of the following compounds.
1. CC(=O)c1ccc(Nc2nc(SC(C)C)nc(-c3ccccc3)c2C#N)cc1
2. COc1ccc(/C=C2\SC(=Nc3cc(C)on3)NC2=O)cc1

Resp:
1. 97.5
2. 96.1

Record growth for all entries; do not skip any.
1. CCOc1ccc([C@H]2C(C(=O)c3ccc(Cl)cc3)C3(N[C@@H]2c2ccccc2)C(=O)Nc2ccc(Br)cc23)cc1 (stereo not given in full)
2. N=C1CC(=O)NN1C(=O)CSc1nc2sc3c(c2c(=O)n1-c1ccc(Cl)cc1)CCCC3
3. CS(=O)(=O)c1ccc(-c2nc3ccccn3c2/C=N/Nc2nc(-c3ccc(Cl)cc3)cs2)cc1
4. Oc1c(Cl)cc(Cl)c2ccc(CN3CCCCC3)nc12

Resp:
[4.78, 99, 101, 21.3]

Dear reader, for each entry below, please note its growth.
1. Nc1nc(N)c2c(n1)NC(c1ccc(C(F)(F)F)cc1)CC(c1ccc(Nc3nc(NCCO)nc(Nc4ccc(Cl)cc4)n3)cc1)=N2 (stereo not given)
2. COC(=O)C1CN(S(=O)(=O)/N=C2\NC(=O)NC2=C(Cl)Cl)C1
3. N#Cc1c(-c2ccc(Cl)cc2)nc(SCc2ccc([N+](=O)[O-])cc2)nc1N1CCNCC1

Resp:
1. -85.3
2. 111
3. -91.5

---

Kindly supply the reported growth values for the records listed here.
# System: MOLT-4 leukemia
# MEASUREMENT NOTES: NCI-60 one-dose screen, 48 h (100 = growth as untreated, 0 = no growth, -100 = all killed)
# STUDY CONDITIONS: 10 µM unless noted
This is part of a sample that, as a whole, favours compounds with a hit. Of some 83,000 tested, about 20% had one in any assay.
Numbers only, in %.

Use the examples below as a reference point.
COc1ccc(-c2nc3ccc(-c4nnc(SCC(=O)Nc5ccc(C(C)=O)cc5)o4)cc3[nH]2)cc1 : 87.8
Nc1cc(-c2c[nH]c3ccccc23)nc2cc(-c3c[nH]c4ccccc34)nn12 : 34
CC(C)(C)Nc1nc2c(OCCc3ccccc3)cccn2c1-c1cccc(F)c1 : -0.489
COc1cc(/C=C/C(=O)c2ccccc2)ccc1Oc1nc(NCCO)nc(N2CCOCC2)n1 : 71.3

Note: attention shifts to another entry.
Req: So what does the record say about growth for "O=C1/C(=C/C2=Cc3ccccc3OC2)SC(=S)N1c1ccc(F)cc1" ?
Resp: 108
